Measured gcPBM binding intensity (ln) accompanies every entry in the list below.
- System: PfAP2-HC AP2 domain (GST-tagged)
- protocol.text: gcPBM binding intensity (ln(normalized median fluorescence intensity)); higher = stronger DNA binding
Whole data set: some 25,000 sequences, median “ln(normalized median fluorescence intensity)” near 9.7, cut for the highest 2% near 11. For the sample, the highest values were picked, then their nearest neighbours and some sequences at random.
assay.endpoint: gcPBM binding intensity (ln)

ATATAAATATGTTCTGCACACAAATAAGTGTTTGAA [CACACA_site9291] :: 9.79
CGCGCACCCAGACACACACACACACCGATATATATA [CACACA_site8687] :: 10.9
CACAGACACGGACACACACACACACCCATATATATA [CACACA_site4354] :: 11.3
TTTATTTATATAATTACACACATATATACACAAATG [CACACA_site8903] :: 9.79
AATGAACTCACGAGCACACACACACCGATATATATA [CACACA_site4710] :: 11
TAATTTTTTTTTTTTTTTTTTGTACTTCATTTTTAT [CACACA_negctrl_site1395] :: 9.58

###

- Tested on: PfAP2-HC AP2 domain (GST-tagged)
- protocol.text: gcPBM binding intensity (ln(normalized median fluorescence intensity)); higher = stronger DNA binding
In all, about 25,000 sequences were measured (“ln(normalized median fluorescence intensity)”: median about 9.7, highest 2% from about 11 on). The sample holds the highest values, similar sequences and a random draw of the others, so the mix is not that of the screen.
This section presents sequences with their documented gcPBM binding intensity (ln) values.
assay.endpoint: gcPBM binding intensity (ln)

TTAATATAAGCAAATACACACACACCGATATATATA [CACACA_site9269] :: 11.1
ATATATATATATATGTGTACATATATATATCATATG [XGTACX_site3126] :: 9.68
ATAATATATATTAATACACACACACCGATATATATA [CACACA_site9261] :: 10.4
TTGGGGTATCTTCCTATGCACACTTGTTATGTACTA [CACACA_site831] :: 9.85
TAAATAAATAAAAAAACACACATATAAATATAAATA [CACACA_site7815] :: 9.93
AAATAAATTAAAATAAATTAAATTAAATTAGCATTA [GTGCAC_negctrl_site531] :: 9.52
TAAAAAAAAAAAAATACACACACACCGATATATATA [CACACA_site8498] :: 10.7
AAAAAGGATAAACACACACACACACCGATATATATA [CACACA_site8206] :: 11
AAAAAAAAAAAAAATACACACACACCGATATATATA [CACACA_site8142] :: 10.6
TTTTCTAAAAAAAGTTGTACATCTTATTTATATTAT [XGTACX_site295] :: 9.63
TATAATTATATAAATTGTACATAAAAAGTTTTTACT [XGTACX_site3621] :: 9.45
GCCGCACCCAGATACGCACACAAGAAAAAAATATTC [CACACA_site3456] :: 9.8
CTATAATAATAAAGTGAACACACACCGATAATATAT [CACACA_site9377] :: 10.1
TGGGAATAAAAACACACACACACACCGATATATATA [CACACA_site5875] :: 11.3
AATATATATATATATACACACACACCGATATATATA [CACACA_site8158] :: 11.2
AATAAAAAGGAACACACACACACACCGATATATATA [CACACA_site5895] :: 11.2
AAACAATTTTTTAAAAGTACTTGAAAATTGTGAAAT [XGTACX_site2461] :: 9.63
TTCATTTTCATATATTGTACAAAATTTTATAAGGTT [XGTACX_site4522] :: 9.58
ATTAATAAATAAATGACACACACACCCACAAAAAAA [CACACA_site8839] :: 11.3
TATAATATTAATGACTGTACTCATACGTATATTTAT [XGTACX_site5493] :: 9.76
TTAAGTCCGTTAACAGTGCATTTTTTCTTTTATGTA [GTGCAC_site9867] :: 9.58
AGAGCATAATAAAACACACACATACATACCTATATA [CACACA_site6566] :: 10.9
ATATAAAATAGACACGCACACAAAAAAAAAAAAAAA [CACACA_site3522] :: 10.4
AATATAAATAAAAACACACACACACCGATATATATA [CACACA_site5283] :: 10.8
AACACCCACAGACACACACACAAAAATGATTAAAAA [CACACA_site2433] :: 10.9
TTTTTTTTTATAGCTAAACACACATAAGAATATATG [CACACA_site8282] :: 9.61
ATATTTGTATAAATTGCACACTTTATTTTTTTTAAG [CACACA_site1558] :: 9.61
